Molecular target: AHAS P197S (Arabidopsis thaliana, UniProt P17597, E575Q/P197S)
Sequence (P17597 56-670 P197S/E575Q): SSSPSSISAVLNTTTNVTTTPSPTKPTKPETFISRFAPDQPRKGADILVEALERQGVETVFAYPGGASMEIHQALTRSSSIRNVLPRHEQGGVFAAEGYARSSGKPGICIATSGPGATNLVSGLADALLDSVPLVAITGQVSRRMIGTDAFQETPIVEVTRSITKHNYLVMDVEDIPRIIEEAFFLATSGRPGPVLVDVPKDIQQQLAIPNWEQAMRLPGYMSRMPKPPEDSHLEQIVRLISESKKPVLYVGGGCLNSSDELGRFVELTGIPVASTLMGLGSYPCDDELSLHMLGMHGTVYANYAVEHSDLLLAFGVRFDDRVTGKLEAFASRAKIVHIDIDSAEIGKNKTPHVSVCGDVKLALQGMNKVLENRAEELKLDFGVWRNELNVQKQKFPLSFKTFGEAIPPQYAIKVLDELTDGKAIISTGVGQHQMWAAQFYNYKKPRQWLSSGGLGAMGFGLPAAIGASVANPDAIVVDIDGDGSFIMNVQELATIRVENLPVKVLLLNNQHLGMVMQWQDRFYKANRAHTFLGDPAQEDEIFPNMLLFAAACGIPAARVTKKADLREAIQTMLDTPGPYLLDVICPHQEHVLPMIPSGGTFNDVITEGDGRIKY
Type: biochemical
What Resistance Factor was measured for each of the following?

Requested read-out Resistance Factor, target or system AHAS P197S (Arabidopsis thaliana, UniProt P17597, E575Q/P197S), entry COc1cc(OC)n2nc(NS(=O)(=O)c3c(C(F)(F)F)ccnc3OC)nc2n1
261

Recall the recorded Resistance Factor for CCS(=O)(=O)c1nc2ccccn2c1S(=O)(=O)NC(=O)Nc1nc(OC)cc(OC)n1 with AHAS P197S (Arabidopsis thaliana, UniProt P17597, E575Q/P197S) and state it.
1848

Please tell me: Resistance Factor of COc1cc(OC)nc(Oc2cccc(Oc3nc(OC)cc(OC)n3)c2C(=O)O)n1 [Bispyribac-sodium, bispyribac-sodium] , system AHAS P197S (Arabidopsis thaliana, UniProt P17597, E575Q/P197S)?
4

// fetch AHAS P197S (Arabidopsis thaliana, UniProt P17597, E575Q/P197S) Resistance Factor for COc1cc(OC)nc(NC(=O)NS(=O)(=O)c2ncccc2C(F)(F)F)n1
120

Value wanted: Resistance Factor (AHAS P197S (Arabidopsis thaliana, UniProt P17597, E575Q/P197S)) of entry COC(=O)c1csc(C)c1S(=O)(=O)NC(=O)n1nc(OC)n(C)c1=O
1173

Hi! What's the reported Resistance Factor for COC(=O)c1ccc(CNS(C)(=O)=O)cc1S(=O)(=O)NC(=O)Nc1nc(OC)cc(OC)n1 on AHAS P197S (Arabidopsis thaliana, UniProt P17597, E575Q/P197S)?
65

Hello, I am looking for reported Resistance Factor with AHAS P197S (Arabidopsis thaliana, UniProt P17597, E575Q/P197S) for COC(=O)c1sccc1S(=O)(=O)NC(=O)Nc1nc(C)nc(OC)n1 . Could you help?
200

Enter reported Resistance Factor observed with AHAS P197S (Arabidopsis thaliana, UniProt P17597, E575Q/P197S) for CCS(=O)(=O)c1cccnc1S(=O)(=O)NC(=O)Nc1nc(OC)cc(OC)n1
18

Form field - read-out: Resistance Factor; system: AHAS P197S (Arabidopsis thaliana, UniProt P17597, E575Q/P197S); submitted item: COc1cc(OC)nc(NC(=O)NS(=O)(=O)c2ncccc2C(=O)N(C)C)n1
6

Fill in the recorded Resistance Factor for this compound, with AHAS P197S (Arabidopsis thaliana, UniProt P17597, E575Q/P197S) as test system: COc1ncc(F)c2nc(S(=O)(=O)Nc3c(F)cccc3F)nn12
28

What Resistance Factor appears in the records for this compound with AHAS P197S (Arabidopsis thaliana, UniProt P17597, E575Q/P197S)? COc1cc(OC)nc(NC(=O)NS(=O)(=O)N(C)S(C)(=O)=O)n1
>488

API: value(readout=Resistance Factor, system=AHAS P197S (Arabidopsis thaliana, UniProt P17597, E575Q/P197S)) for record COCc1cnc(C2=NC(C)(C(C)C)C(=O)N2)c(C(=O)O)c1 (centres unmarked)
1

For the record COc1cc(OC)n2nc(S(=O)(=O)Nc3c(Cl)ccc(C)c3Cl)nc2n1 , what value of Resistance Factor is listed for AHAS P197S (Arabidopsis thaliana, UniProt P17597, E575Q/P197S)?
457

// map COc1cc(OC)nc(NC(=O)NS(=O)(=O)c2cc(NC=O)ccc2C(=O)N(C)C)n1 to recorded Resistance Factor (system: AHAS P197S (Arabidopsis thaliana, UniProt P17597, E575Q/P197S))
12

Hi! What's the reported Resistance Factor for CCCOc1nn(C(=O)[N-]S(=O)(=O)c2ccccc2C(=O)OC)c(=O)n1C.[Na+] on AHAS P197S (Arabidopsis thaliana, UniProt P17597, E575Q/P197S)?
147

Request: Resistance Factor, test system AHAS P197S (Arabidopsis thaliana, UniProt P17597, E575Q/P197S), entry COC(=O)c1ccc(I)cc1S(=O)(=O)[N-]C(=O)Nc1nc(C)nc(OC)n1.[Na+] [Iodosulfuron-methy-sodium, iodosulfuron-methyl-sodium]
139

Provide value of Resistance Factor for this record tested with AHAS P197S (Arabidopsis thaliana, UniProt P17597, E575Q/P197S): COC(=O)c1ccccc1S(=O)(=O)NC(=O)Nc1nc(C)nc(OC)n1
38

###

Target: AHAS D376E (Arabidopsis thaliana, UniProt P17597, D376E/E575Q)
Sequence (P17597 56-670 D376E/E575Q): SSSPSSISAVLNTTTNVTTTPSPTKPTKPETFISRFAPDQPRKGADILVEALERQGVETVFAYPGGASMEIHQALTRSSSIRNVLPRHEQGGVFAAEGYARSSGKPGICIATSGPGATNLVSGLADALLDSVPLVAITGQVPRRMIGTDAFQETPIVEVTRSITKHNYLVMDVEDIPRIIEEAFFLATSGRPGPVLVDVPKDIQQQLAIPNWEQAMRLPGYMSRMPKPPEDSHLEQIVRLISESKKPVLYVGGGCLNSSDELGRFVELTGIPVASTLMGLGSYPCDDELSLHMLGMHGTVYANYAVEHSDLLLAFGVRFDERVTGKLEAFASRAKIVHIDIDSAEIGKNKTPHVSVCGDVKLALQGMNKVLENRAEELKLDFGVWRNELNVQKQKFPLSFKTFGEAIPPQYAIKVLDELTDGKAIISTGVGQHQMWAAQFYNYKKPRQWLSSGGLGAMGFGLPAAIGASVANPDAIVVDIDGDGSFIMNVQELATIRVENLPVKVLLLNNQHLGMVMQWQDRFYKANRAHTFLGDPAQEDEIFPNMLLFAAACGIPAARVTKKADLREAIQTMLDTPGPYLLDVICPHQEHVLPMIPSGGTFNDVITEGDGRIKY
Assay: biochemical
Conditions: AHAS D376E
Assign Resistance Factor to each entry below.

Quick one: Resistance Factor of COC(=O)c1csc(C)c1S(=O)(=O)NC(=O)n1nc(OC)n(C)c1=O ?
371

Tell me the measured Resistance Factor of COc1cc(OC)nc(NC(=O)NS(=O)(=O)c2cc(NC=O)ccc2C(=O)N(C)C)n1 , please.
3715

For COC(=O)c1sccc1S(=O)(=O)NC(=O)Nc1nc(C)nc(OC)n1 , what is its reported Resistance Factor?
631

For the molecule COC(=O)c1ccc(CNS(C)(=O)=O)cc1S(=O)(=O)NC(=O)Nc1nc(OC)cc(OC)n1 , what Resistance Factor is on record?
12915

Which measured Resistance Factor value corresponds to COc1cc(OC)n2nc(S(=O)(=O)Nc3c(Cl)ccc(C)c3Cl)nc2n1 ?
575

Which Resistance Factor value is on record for COC(=O)c1ccc(I)cc1S(=O)(=O)[N-]C(=O)Nc1nc(C)nc(OC)n1.[Na+] [Iodosulfuron-methy-sodium, iodosulfuron-methyl-sodium] ?
3503

// returns reported Resistance Factor for input COCc1cnc(C2=NC(C)(C(C)C)C(=O)N2)c(C(=O)O)c1 (centres unmarked)
11

What value of measured Resistance Factor is listed for CCCOc1nn(C(=O)[N-]S(=O)(=O)c2ccccc2C(=O)OC)c(=O)n1C.[Na+] ?
1468

Field request: Resistance Factor | item: CCS(=O)(=O)c1cccnc1S(=O)(=O)NC(=O)Nc1nc(OC)cc(OC)n1
56

Param item = COC(=O)c1ccccc1S(=O)(=O)NC(=O)Nc1nc(C)nc(OC)n1 ; retrieve measured Resistance Factor.
239

Quick one: Resistance Factor of COC(=O)c1ccc(C(F)(F)F)nc1S(=O)(=O)NC(=O)Nc1nc(OC)cc(OC)n1 ?
2399

Using the record for COc1cc(OC)nc(NC(=O)NS(=O)(=O)c2ncccc2C(=O)N(C)C)n1 , report its Resistance Factor.
>607

Find the recorded Resistance Factor belonging to COc1ncc(F)c2nc(S(=O)(=O)Nc3c(F)cccc3F)nn12 and report it.
55

Resistance Factor lookup needed for COc1cc(OC)n2nc(NS(=O)(=O)c3c(C(F)(F)F)ccnc3OC)nc2n1 , thanks.
656

###

Molecular target: AHAS P197S-D376E (Arabidopsis thaliana, UniProt P17597, D376E/E575Q/P197S)
Sequence (P17597 56-670 P197S/D376E/E575Q): as the sequence (P17597 56-670 D376E/E575Q) above, with P142S counted along it
Assay: biochemical
Settings: AHAS P197S-D376E
VALUE TYPE: Resistance Factor

I would be grateful if you could share the reported Resistance Factor for COC(=O)c1csc(C)c1S(=O)(=O)NC(=O)n1nc(OC)n(C)c1=O [Thiencarbazone-methyl, thiencarbazone-methyl] .
>7399

For COCc1cnc(C2=NC(C)(C(C)C)C(=O)N2)c(C(=O)O)c1 (stereo not shown) [Imazamox, imazamox] , what is its reported Resistance Factor?
>22

Find the recorded Resistance Factor belonging to COc1cc(OC)nc(NC(=O)NS(=O)(=O)c2ncccc2C(=O)N(C)C)n1 [Nicosulfuron, nicosulfuron] and report it.
>607

// lookup Resistance Factor for CCCOc1nn(C(=O)[N-]S(=O)(=O)c2ccccc2C(=O)OC)c(=O)n1C.[Na+] [Propoxycarbazone]
>4641

Look up Resistance Factor: COc1cc(OC)n2nc(NS(=O)(=O)c3c(C(F)(F)F)ccnc3OC)nc2n1 [Pyroxsulam, pyroxsulam]
>41368

Returns the measured Resistance Factor for the input compound. Input: COc1cc(OC)nc(NC(=O)NS(=O)(=O)N(C)S(C)(=O)=O)n1 [Amidosulfuron, amidosulfuron]
>488

Using the record for COc1ncc(F)c2nc(S(=O)(=O)Nc3c(F)cccc3F)nn12 [Florasulam, florasulam] , report its Resistance Factor.
2754

###

Would you kindly list Resistance Factor for each of these molecules?
Biological target: AHAS W574L (Arabidopsis thaliana, UniProt P17597, E575Q/W574L)
Sequence (P17597 56-670 W574L/E575Q): as the sequence (P17597 56-670 P197S/E575Q) above, with S142P, W519L counted along it
Format: biochemical
Experimental: Bacteria are grown at 37° C. in LB-medium containing 100 mg/l carbenicillin and 25 mg/l canamycin, induced with 1 mM isopropyl-β-D-thiogalactopyranoside at an OD600 of 0.6, cultivated for 16 hours at 18° C. and harvested by, e.g., centrifugation. Bacterial pellets are resuspended in 100 mM sodium phosphate buffer pH 7.0 containing 0.1 mM thiamine-pyrophosphate, 1 mM MgCl2, and 1 μM FAD at a concentration of 1 gram wet weight per 25 ml of buffer and disrupted by, e.g., sonification. […]
Just the number, please, no unit after it.

Return reported Resistance Factor; argument: CCCOc1nn(C(=O)[N-]S(=O)(=O)c2ccccc2C(=O)OC)c(=O)n1C.[Na+]
293

Look up Resistance Factor for this molecule: CCS(=O)(=O)c1cccnc1S(=O)(=O)NC(=O)Nc1nc(OC)cc(OC)n1
447

Which Resistance Factor is reported for this molecule? COC(=O)c1ccccc1S(=O)(=O)NC(=O)Nc1nc(C)nc(OC)n1
755

Resistance Factor lookup needed for COC(=O)c1ccc(CNS(C)(=O)=O)cc1S(=O)(=O)NC(=O)Nc1nc(OC)cc(OC)n1 , thanks.
25770

Measured values drawn from patent US20160298129A1 for this set.
